Molecular target: T1, 4H1629-bA
T1 chain: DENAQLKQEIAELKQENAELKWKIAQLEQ
Assay: two-hybrid library CCNG1;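 also: natural log of median RNA to DNA barcode read ratio; higher means stronger binding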
interaction score values by entry
Respond with the number and no other words.

Worked cases, interaction score given:
[
  {
    "Binder": "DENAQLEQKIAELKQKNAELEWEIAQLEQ [4H1393-bA]",
    "interaction score": -1.57
  },
  {
    "Binder": "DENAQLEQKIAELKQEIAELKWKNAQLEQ [4H1359-bA]",
    "interaction score": -0.732
  }
]

Prompt: What value of interaction score has been recorded for this entry: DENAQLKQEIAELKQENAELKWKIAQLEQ [4H1629-bA]
Completion: 0.605

Prompt: What value of interaction score has been recorded for this entry: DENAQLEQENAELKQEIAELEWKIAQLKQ [4H1222-bA]
Completion: -0.826

Prompt: What value of interaction score has been recorded for this entry: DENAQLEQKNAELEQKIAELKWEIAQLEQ [4H1449-bA]
Completion: -1.11
